Test system: ATP;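 note: ATP exposure 15 min at 22 °C before imaging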
assay-name: switch fluorescence ratio, 500 uM ATP over buffer (Cy3 cluster intensity, sum of 5 cycles each) (fold (ratio)); higher = stronger signal-on switching upon ATP binding; sequences stand for … in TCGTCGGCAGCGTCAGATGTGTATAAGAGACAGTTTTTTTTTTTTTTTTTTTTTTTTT…TC
stated-conditions: aptamer strand: ATP DNA aptamer (quencher-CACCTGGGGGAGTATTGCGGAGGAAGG + anchor), 100 nM annealed; ATP concentration: 500 uM
Measured switch fluorescence ratio, listed per entry.

| ordered-residues | switch fluorescence ratio |
| --- | --- |
| CCTGGGCCGC | 1.65 |
| CTTCGGGGTT | 1.03 |
| CCGTATAATG | 0.98 |
| TATTTATACA | 1.03 |
| TCAGGTGCGG | 1.16 |
| TCTGGACATT | 1.01 |
| TGATATAAGC | 1.03 |
| AAGAGGGGAT | 0.985 |
| GTTATCTTAG | 1.01 |
| ATAAGTTAAA | 1.07 |
| CGATTGATCA | 1 |
| ATGCATGGTA | 1.03 |
| GATATTGGGC | 1.02 |
| TACGGGGGGG | 1.07 |
| CGGTATAGCA | 0.971 |
| TCGATTGTGG | 1.02 |
| TTTGTCGCCG | 1.01 |
| GGTGGTACTG | 1.01 |
| CGCGGTAGCG | 0.972 |
| GGGGAGGTTG | 0.991 |
| GCTGTTTGTA | 0.999 |
| GGGTGAGATA | 1.07 |
| TAACGTATGT | 0.993 |
| GGGCTAAAAG | 0.974 |
| TTTCGTAATT | 1 |
| TGTTGTTGGG | 0.995 |
| TTTGTGGATG | 0.985 |
| ATACTTATAT | 1.04 |
| TTGGGTTCGT | 0.998 |
| AATAGCTAAA | 0.999 |
| GTTGTATGGA | 0.995 |
| GCTCTTCCCG | 1.32 |
| TCCAAGGCTT | 1.04 |
| AAATGTTTAT | 0.98 |
| CATTTGCCTT | 1.03 |
| TCTTAAAGAT | 1.06 |
| AATAGTACTG | 1 |
| ATCAAATGTA | 0.981 |
| GATGATCGTT | 0.988 |
| TGCATTATAC | 3.59 |
| GCTTCAGGGG | 1.09 |
| TATTTTGGGA | 1.02 |
| AAAAAAATTT | 1 |

====

Test system: ATP;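 note: ATP exposure 15 min at 22 °C before imaging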
assay-name: switch fluorescence ratio, 500 uM ATP over buffer (Cy3 cluster intensity, sum of 5 cycles each) (fold (ratio)); higher = stronger signal-on switching upon ATP binding; sequences stand for … in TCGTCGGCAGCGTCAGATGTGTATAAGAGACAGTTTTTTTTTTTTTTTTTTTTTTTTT…TC
stated-conditions: aptamer strand: ATP DNA aptamer (quencher-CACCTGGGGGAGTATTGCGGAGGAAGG + anchor), 100 nM annealed; ATP concentration: 500 uM
assay-metric: switch fluorescence ratio

| ordered-residues | assay-metric | assay-result |
| --- | --- | --- |
| TAATAGGAAG | switch fluorescence ratio | 1.26 |
| CTTAGGGGTA | switch fluorescence ratio | 0.999 |
| TGTGTGTGGG | switch fluorescence ratio | 1.03 |
| GATTCAGGAC | switch fluorescence ratio | 1.04 |
| TTCCCACGGG | switch fluorescence ratio | 1.64 |
| TTGCGATATT | switch fluorescence ratio | 1.27 |
| ACTATGGCGG | switch fluorescence ratio | 1.03 |
| TAAGACATTT | switch fluorescence ratio | 1.03 |
| CAGTAGTTAT | switch fluorescence ratio | 0.996 |
| AGGCAAAGTT | switch fluorescence ratio | 0.989 |

====

Test system: ATP;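 note: ATP exposure 15 min at 22 °C before imaging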
assay-name: switch fluorescence ratio, 500 uM ATP over buffer (Cy3 cluster intensity, sum of 5 cycles each) (fold (ratio)); higher = stronger signal-on switching upon ATP binding; sequences stand for … in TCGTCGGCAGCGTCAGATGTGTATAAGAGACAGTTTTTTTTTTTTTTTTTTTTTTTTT…TC
stated-conditions: aptamer strand: ATP DNA aptamer (quencher-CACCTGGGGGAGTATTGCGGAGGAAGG + anchor), 100 nM annealed; ATP concentration: 500 uM
Measured switch fluorescence ratio, listed per entry.

| ordered-residues | switch fluorescence ratio |
| --- | --- |
| TAGAAAGACT | 1.07 |
| GACAAGTATT | 1.01 |
| GGTAGGGGTT | 1 |
| GTCCGGGGTC | 0.972 |
| GGAGGGAGGG | 1.02 |
| TTTTAGTTTT | 1 |
| TATGCGGGGC | 1.1 |
| TTAAGGTTGG | 0.993 |
| ATGTGCTTAG | 1.04 |
| AACGTGGCGG | 0.988 |
| GGGTTAGGAG | 0.99 |
| TTGATATCAT | 0.97 |
| TAAAGGGGTT | 0.986 |
| TTTAAAAA | 1.02 |
| GCTATTGGAT | 1.01 |
| GGGTTATTTG | 1.01 |
| GCAGAGGGTC | 1 |
| ACGGGTAGAC | 1.08 |
| GCCATTAGGA | 1.02 |
| CGGACTCGTG | 0.954 |
| TACCGGGGC | 1.06 |

====

Test system: ATP;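 note: ATP exposure 15 min at 22 °C before imaging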
assay-name: switch fluorescence ratio, 500 uM ATP over buffer (Cy3 cluster intensity, sum of 5 cycles each) (fold (ratio)); higher = stronger signal-on switching upon ATP binding; sequences stand for … in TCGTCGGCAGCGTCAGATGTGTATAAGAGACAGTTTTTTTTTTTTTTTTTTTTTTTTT…TC
stated-conditions: aptamer strand: ATP DNA aptamer (quencher-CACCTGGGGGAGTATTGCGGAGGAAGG + anchor), 100 nM annealed; ATP concentration: 500 uM

| ordered-residues | switch fluorescence ratio |
| --- | --- |
| TGTTCCGACT | 1.05 |
| GAAGGGGTCA | 0.99 |
| ATGTATGTGG | 0.987 |
| GGGTTAACTT | 0.999 |
| GTGGTGTACT | 0.985 |
| TAATTACTCA | 1.05 |
| TTGCGTGCTT | 1.01 |
| TCAAAGTCCT | 1.01 |
| CAACAACATT | 1.07 |
| AAGGAGTTTG | 0.969 |
| TTGGCAGATT | 1 |
| ATTTATTTGC | 1.01 |
| ATGAGGTGCG | 0.972 |
| CTTGTGGCGT | 1 |
| AATGTTACGG | 1.06 |
| GAAACTTAGG | 1.01 |
| TGCGGGTGGT | 1.04 |
| TTCCCGTCAG | 1.02 |
| AAAATTATGG | 0.968 |
| TTAGAGAAAA | 1.03 |
| CTTAGGCCAC | 0.99 |
| CATTGGGTGC | 1.05 |
| TTCAGGATGG | 1.02 |
| GGTGGGGGGA | 1.01 |
| GCTGCTGTTG | 1.06 |
| ATCGTCGGGA | 0.977 |
| CCGTACGTTT | 1.24 |
| ACTTATCAGG | 1.04 |
| CGGTTAGATA | 0.987 |
| TTTTGCCGTT | 1.01 |
| TTATCGGTTG | 1.03 |
| CGTTGGGTCT | 1 |
| CACAAGGACG | 0.962 |
| AAGTTGATTA | 1.01 |
| CACTGTGTTG | 0.987 |
| TAAAGCGTTT | 1.12 |
| GCAGTATGGT | 0.985 |
| CGTAACTGGT | 0.978 |
| TCCTTTAGCC | 1.23 |
| CGGGGTCTGT | 0.999 |
| GGGATGTGGT | 1.01 |
| GATGCGGGGG | 1.02 |
| GATTGGATCG | 0.99 |

====

Tested on: ATP;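 note: ATP exposure 15 min at 22 °C before imaging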
assay-name: switch fluorescence ratio, 500 uM ATP over buffer (Cy3 cluster intensity, sum of 5 cycles each) (fold (ratio)); higher = stronger signal-on switching upon ATP binding; sequences stand for … in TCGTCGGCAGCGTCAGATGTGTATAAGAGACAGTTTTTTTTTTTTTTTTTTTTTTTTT…TC
stated-conditions: aptamer strand: ATP DNA aptamer (quencher-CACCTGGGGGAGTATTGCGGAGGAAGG + anchor), 100 nM annealed; ATP concentration: 500 uM
Measured switch fluorescence ratio, listed per entry.

| ordered-residues | subject-of-test | switch fluorescence ratio |
| --- | --- | --- |
| GGCTCATTAT | ATP | 0.972 |
| GCATGATGGC | ATP | 1.03 |
| AACGCATATT | ATP | 1.85 |
| GTTTGCTGTT | ATP | 0.993 |
| TTTGGGTCTC | ATP | 0.998 |
| TAGGGCGCAG | ATP | 0.959 |
| CTTTATGCGG | ATP | 0.994 |
| TTTGGGATCG | ATP | 0.98 |
| ACGCATTGGT | ATP | 1.19 |
| TTTTGGGCCC | ATP | 1.04 |

Where do these numbers come from? They come from the supplement of paper PMC10126150.
